molecular target: GluN1/GluN2D receptors (Rattus norvegicus, UniProt P35439+Q62645); test: Two-electrode voltage clamp of recombinant NMDARs in Xenopus laevis oocytes (GluN2D); conditions: read-out: IC50 Tauro-CDC; 10 µM Gly, 0.51 µM Glu
Sequence (Q62645 28-1323, other chains not shown): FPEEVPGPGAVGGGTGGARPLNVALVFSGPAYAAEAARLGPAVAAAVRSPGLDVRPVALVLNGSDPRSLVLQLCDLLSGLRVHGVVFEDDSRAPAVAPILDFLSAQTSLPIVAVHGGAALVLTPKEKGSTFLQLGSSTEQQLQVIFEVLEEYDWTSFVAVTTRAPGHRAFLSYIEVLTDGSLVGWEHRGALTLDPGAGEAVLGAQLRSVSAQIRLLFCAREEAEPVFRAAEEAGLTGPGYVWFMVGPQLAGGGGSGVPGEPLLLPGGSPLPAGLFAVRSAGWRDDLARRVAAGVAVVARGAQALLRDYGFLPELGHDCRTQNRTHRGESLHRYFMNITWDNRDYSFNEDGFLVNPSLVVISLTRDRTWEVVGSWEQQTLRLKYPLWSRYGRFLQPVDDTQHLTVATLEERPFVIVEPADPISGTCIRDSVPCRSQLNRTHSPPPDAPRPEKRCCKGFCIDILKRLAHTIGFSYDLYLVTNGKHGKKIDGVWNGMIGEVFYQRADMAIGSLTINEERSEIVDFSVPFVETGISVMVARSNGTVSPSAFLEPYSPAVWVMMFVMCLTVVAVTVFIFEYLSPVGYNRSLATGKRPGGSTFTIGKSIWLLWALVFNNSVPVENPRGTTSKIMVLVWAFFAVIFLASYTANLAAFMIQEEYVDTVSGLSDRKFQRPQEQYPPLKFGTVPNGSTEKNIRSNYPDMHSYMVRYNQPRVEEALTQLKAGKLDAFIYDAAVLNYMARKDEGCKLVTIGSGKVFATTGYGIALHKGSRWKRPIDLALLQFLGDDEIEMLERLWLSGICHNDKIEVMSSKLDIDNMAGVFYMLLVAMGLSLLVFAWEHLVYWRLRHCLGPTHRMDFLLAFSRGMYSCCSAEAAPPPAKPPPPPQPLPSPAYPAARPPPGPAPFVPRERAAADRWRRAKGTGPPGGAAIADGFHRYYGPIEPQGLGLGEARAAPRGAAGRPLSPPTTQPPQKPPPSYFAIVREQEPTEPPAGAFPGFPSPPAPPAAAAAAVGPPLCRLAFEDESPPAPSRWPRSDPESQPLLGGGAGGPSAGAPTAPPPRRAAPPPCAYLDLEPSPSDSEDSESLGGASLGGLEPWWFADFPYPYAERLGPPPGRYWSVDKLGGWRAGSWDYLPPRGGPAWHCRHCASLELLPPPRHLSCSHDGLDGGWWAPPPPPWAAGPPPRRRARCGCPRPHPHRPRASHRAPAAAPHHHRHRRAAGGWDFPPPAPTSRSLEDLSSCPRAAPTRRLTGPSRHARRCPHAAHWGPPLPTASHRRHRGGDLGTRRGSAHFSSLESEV
pIC50: −log10 of the molar value.

[
  {
    "COMPOUND": "C[C@H](CCC(=O)NCCS(=O)(=O)O)[C@H]1CC[C@H]2[C@@H]3[C@H](O)C[C@@H]4C[C@H](O)CC[C@]4(C)[C@H]3CC[C@]12C [Tauro-CDC]",
    "TARGET_UNDER_TEST": "GluN1/GluN2D receptors (Rattus norvegicus, UniProt P35439+Q62645)",
    "pIC50": 3.86
  }
]

---

target: GluN1/GluN3B receptors (Mus musculus); experiment: Two-electrode voltage clamp of recombinant NMDARs in Xenopus laevis oocytes (GluN3B); details: read-out: mean IC50 for tauro-CDC; in the presence of 10 μM glycine; n = 6
Sequence (Q91ZU9 25-1003, other chains not shown): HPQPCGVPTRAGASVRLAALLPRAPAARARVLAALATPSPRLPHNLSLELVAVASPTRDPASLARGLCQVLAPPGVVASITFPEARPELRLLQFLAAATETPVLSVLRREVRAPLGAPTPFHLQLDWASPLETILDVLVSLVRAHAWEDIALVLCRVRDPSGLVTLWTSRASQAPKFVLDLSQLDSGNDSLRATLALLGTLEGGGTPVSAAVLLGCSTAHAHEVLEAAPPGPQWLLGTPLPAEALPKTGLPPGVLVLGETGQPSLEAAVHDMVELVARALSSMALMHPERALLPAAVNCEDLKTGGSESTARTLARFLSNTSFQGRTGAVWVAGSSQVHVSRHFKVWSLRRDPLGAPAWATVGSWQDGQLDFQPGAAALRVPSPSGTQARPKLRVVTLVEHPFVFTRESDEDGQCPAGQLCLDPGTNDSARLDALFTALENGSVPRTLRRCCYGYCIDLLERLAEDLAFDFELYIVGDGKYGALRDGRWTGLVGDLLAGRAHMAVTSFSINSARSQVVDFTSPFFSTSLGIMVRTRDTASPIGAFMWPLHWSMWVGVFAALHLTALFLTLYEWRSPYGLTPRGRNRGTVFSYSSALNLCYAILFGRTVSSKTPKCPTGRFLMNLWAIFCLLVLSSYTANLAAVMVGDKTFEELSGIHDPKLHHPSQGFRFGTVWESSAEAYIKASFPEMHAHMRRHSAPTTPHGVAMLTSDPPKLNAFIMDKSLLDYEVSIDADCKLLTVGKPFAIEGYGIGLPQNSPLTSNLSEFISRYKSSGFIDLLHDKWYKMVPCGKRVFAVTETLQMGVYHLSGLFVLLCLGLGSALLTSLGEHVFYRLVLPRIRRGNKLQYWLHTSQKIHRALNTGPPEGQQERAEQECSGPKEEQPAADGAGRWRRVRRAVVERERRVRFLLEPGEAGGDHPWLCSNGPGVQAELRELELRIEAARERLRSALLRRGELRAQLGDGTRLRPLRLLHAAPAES
METRIC_NAME: IC50 (µM)

[
  {
    "SMILES_STRING": "C[C@H](CCC(=O)NCCS(=O)(=O)O)[C@H]1CC[C@H]2[C@@H]3[C@H](O)C[C@@H]4C[C@H](O)CC[C@]4(C)[C@H]3CC[C@]12C",
    "TARGET_UNDER_TEST": "GluN1/GluN3B receptors (Mus musculus)",
    "MEAS_VALUE": 83
  }
]

Every entry's value here was drawn from paper PMC6624251.
